- Species: Rattus norvegicus
- assay-remarks: Open TG-GATES - Regimen: Daily Repeat
- Format: toxicity, organism-based, Sprague-Dawley
- Parameters: regimen Daily Repeat, gender Male, age 6 weeks
- study-conditions: in vivo, po, 0 mg/kg, 72 h, tissue Plasma, route gavage, dose level Control, time 3 day
property: ALP (IU/L)
State the answer as a number, implicitly in IU/L.

>  <compound>
CCN1CCCC1CNC(=O)c1cc(S(N)(=O)=O)ccc1OC (centres undefined) [SULPIRIDE]

>  <ALP / IU/L>
1602.4

$$$$
>  <compound>
Nc1nc(N)c2nc(-c3ccccc3)c(N)nc2n1

>  <ALP / IU/L>
1605.2

$$$$
>  <compound>
O=C(O)c1cccnc1 [NIACIN]

>  <ALP / IU/L>
1807.6

$$$$
>  <compound>
CCC(C)(C)C(=O)O[C@H]1C[C@@H](C)C=C2C=C[C@H](C)[C@H](CC[C@@H]3C[C@@H](O)CC(=O)O3)[C@H]21 [SIMVASTATIN]

>  <ALP / IU/L>
820.2

$$$$
>  <compound>
CN1C(=O)OC(C)(C)C1=O [TRIMETHADIONE]

>  <ALP / IU/L>
1967.6

$$$$
>  <compound>
C#C[C@]1(O)CC[C@H]2[C@@H]3CCc4cc(O)ccc4[C@H]3CC[C@@]21C [ETHINYL ESTRADIOL]

>  <ALP / IU/L>
1467.2

$$$$
>  <compound>
CC(=N)S [THIOACETAMIDE]

>  <ALP / IU/L>
1014.4

$$$$
>  <compound>
O=C(N[C@H](CO)[C@H](O)c1ccc([N+](=O)[O-])cc1)C(Cl)Cl [CHLORAMPHENICOL]

>  <ALP / IU/L>
1702

$$$$

Now, please, on to the next compound.
Exercise: What does the data say about its ALP? Entry: C[C@]12CCC(=O)C=C1CC[C@@H]1[C@@H]2CC[C@@]2(C)[C@H]1CC[C@]2(C)O [METHYLTESTOSTERONE]
Key: 1982.8

###

- Species: Rattus norvegicus
- assay-remarks: Open TG-GATES - Regimen: Daily Repeat
- Type: toxicity, organism-based, Sprague-Dawley
- Parameters: regimen Daily Repeat, gender Male, age 6 weeks
- study-conditions: in vivo, po, 0 mg/kg, 72 h, tissue Plasma, route gavage, dose level Control, time 3 day
property: LDH (IU/L)
State the answer as a number, implicitly in IU/L.

Example results:
>  <compound>
CC(C)C(=O)Nc1ccc([N+](=O)[O-])c(C(F)(F)F)c1 [FLUTAMIDE]

>  <unit-tag>
IU/L

>  <LDH>
204.4

$$$$
>  <compound>
Oc1ncnc2[nH]ncc12

>  <unit-tag>
IU/L

>  <LDH>
84.6

$$$$
>  <compound>
CCN1CCCC1CNC(=O)c1cc(S(N)(=O)=O)ccc1OC (configuration not stated) [SULPIRIDE]

>  <unit-tag>
IU/L

>  <LDH>
73.8

$$$$
>  <compound>
CC(=O)Oc1cc(C(C)C)c(OCCN(C)C)cc1C

>  <unit-tag>
IU/L

>  <LDH>
202.6

$$$$
>  <compound>
CCSCC[C@H](N)C(=O)O

>  <unit-tag>
IU/L

>  <LDH>
174.8

$$$$

Exercise: What does the data say about its LDH? Entry: `Nc1nc(N)c2nc(-c3ccccc3)c(N)nc2n1`
Key: 60.2

Exercise: What does the data say about its LDH? Entry: `CN1C(=O)OC(C)(C)C1=O`
Key: 109.4
